Multi-source literature compilation: Ki on D(1A) dopamine receptor (Rattus norvegicus).
Numeric only. Scale: µM

-- ask Looking for the measured Ki of OCCN1CCN(CCCN2c3ccccc3Sc3ccc(Cl)cc32)CC1 , can you help?
-- reply 0.0299

-- ask Looking for the measured Ki of Oc1ccc2c(c1O)Cc1ccc(F)c3c1[C@H]2CNC3 , can you help?
-- reply 0.069

-- ask Looking for the measured Ki of Cc1ccccc1C1CNCCc2c1cc(O)c(O)c2Br (stereo unspecified) , can you help?
-- reply 0.00181

###

pKi: −log10 of the molar value.
Multi-source literature compilation: pKi on D(1A) dopamine receptor (Rattus norvegicus).
Assign 1 whenever pKi does not fall below 6; assign 0 whenever it does.

Solved cases (2 shown):
CN1CCc2cc(Cl)c(O)cc2C(c2cccc(C(=O)C3=CC=C[C@@H]3[Re]([CH]=O)([CH]=O)[CH]=O)c2)C1 (stereo partly drawn) | 1
C=CCN1CCc2c(cc(O)c(O)c2Br)C(c2ccc(C)cc2)C1 (stereo not drawn) | 1

-- ask Quick check: does Cc1cccc([C@H]2CN(C)CCc3c2cc(O)c(O)c3Cl)c1 have pKi greater than or equal to 6?
-- reply 1

-- ask Quick check: does CC1c2cccc3c2[C@@H](CN1C)c1ccc(O)c(O)c1C3 (mixture of isomers) have pKi greater than or equal to 6?
-- reply 0

-- ask Quick check: does CCN1CCN(c2cc(-c3ccc(F)cc3)c3c(n2)CCCCCC3)CC1 have pKi greater than or equal to 6?
-- reply 0

-- ask Quick check: does Cc1cccc(C2CNCCc3c2cc(O)c(O)c3Br)c1 (stereo not drawn) have pKi greater than or equal to 6?
-- reply 1

-- ask Quick check: does Cc1c(O)ccc(N2CCN(CCCCOc3ccc4c(c3)NC(=O)CC4)CC2)c1C have pKi greater than or equal to 6?
-- reply 1

###

Multi-source literature compilation: Ki on D(1A) dopamine receptor (Rattus norvegicus, UniProt P18901).
Sequence (P18901 whole entry): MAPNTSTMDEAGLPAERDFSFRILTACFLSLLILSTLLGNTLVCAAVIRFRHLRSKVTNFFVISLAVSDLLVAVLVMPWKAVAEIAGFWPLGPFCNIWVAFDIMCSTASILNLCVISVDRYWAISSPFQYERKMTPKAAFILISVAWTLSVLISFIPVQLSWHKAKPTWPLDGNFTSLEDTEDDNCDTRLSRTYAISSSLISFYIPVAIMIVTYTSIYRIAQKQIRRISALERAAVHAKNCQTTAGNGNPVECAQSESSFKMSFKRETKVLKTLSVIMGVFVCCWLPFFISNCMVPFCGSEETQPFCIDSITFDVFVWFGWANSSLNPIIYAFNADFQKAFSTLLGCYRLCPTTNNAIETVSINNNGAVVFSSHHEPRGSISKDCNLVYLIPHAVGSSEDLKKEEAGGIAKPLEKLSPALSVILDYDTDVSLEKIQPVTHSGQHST
Numeric only. Scale: µM

Examples with their reported Ki follow.
CN1CCc2cc(Cl)c(O)cc2C(c2ccccc2C(=O)C2=CC=C[C@@H]2[Re]([CH]=O)([CH]=O)[CH]=O)C1 (stereo partly drawn) | 0.00061
Cc1cccc([C@@H]2CN(C)CCc3c2cc(O)c(O)c3Cl)c1 | 0.00049
CN(C)CCON=C(C=Cc1ccc(O)cc1)c1ccccc1F | 9
O=C(c1ccc(F)cc1)C1CCN(CCn2c(=O)[nH]c3ccccc3c2=O)CC1 | 1.01
CN1CCc2cc(Cl)c(O)cc2C(c2cccc3c2OCC3)C1 (stereo not drawn) | 0.00017

-- ask Looking for the measured Ki of CN1Cc2cccc3c2[C@@H](C1)c1ccc(O)c(O)c1C3 (racemic) , can you help?
-- reply 0.382

-- ask Looking for the measured Ki of CC(CN1c2ccccc2Sc2ccccc21)N(C)C (stereo not drawn) , can you help?
-- reply 1.78

-- ask Looking for the measured Ki of Oc1ccc2c(c1O)Cc1c(F)ccc3c1C2CNC3 (stereo not drawn) , can you help?
-- reply 3

-- ask Looking for the measured Ki of C=CCN1CCc2c(cc(O)c(O)c2Cl)C(c2cccc(C)c2)C1 (stereo not drawn) , can you help?
-- reply 0.00052

-- ask Looking for the measured Ki of NC(=O)c1ccc(F)c2c1CC(N(C1CCC1)C1CCC1)CO2 (stereo not drawn) , can you help?
-- reply 1

-- ask Looking for the measured Ki of CN1CCN(CC/C=C2/c3ccccc3Sc3ccc(S(=O)(=O)N(C)C)cc32)CC1 , can you help?
-- reply 1.52

-- ask Looking for the measured Ki of CN[C@@H]1CC[C@@H](c2ccc(Cl)c(Cl)c2)c2ccccc21 , can you help?
-- reply 6.3
